- assay_overview: soluble on expression in E. coli; label from the status in PepcDB or PDB records
observed_property: soluble on expression in E. coli

[
  {
    "polymer_sequence": "MGRLFVVNLEGKIYSCKHCKTHLATYEDIISKSFHCKHGKAYLFNKVANVSIGETEERLMMTGKHTVADIFCVSCGSIVGWKYETAHEKNQKYKEGKSVLERFKISGPDGSNYWVSSHGRHIGGSDADDA",
    "observed_property": "soluble on expression in E. coli",
    "experimental_result": "soluble"
  },
  {
    "polymer_sequence": "MGSDKIHHHHHHENLYFQGMTEKSQEPTAALDAEQVAAYLSQHPEFFVEHDELIPELRIPHQPGDAVSLVERQVRLLRERNIEMRHRLSQLMDVARENDRLFDKTRRLVLDLLDATSLEDVVSTVEDSLRHEFQVPYVSLILFSDSSVSVGRSVSSAEAHQAIGGLLSGGKTVCGVLRPHELAFLFGESDRDEIGSAAVVSLSFQGLHGVLAIGSPDPQHYKSSLGTLFLGYVAEVLARVLPRFSSPLRSVR",
    "observed_property": "soluble on expression in E. coli",
    "experimental_result": "soluble"
  }
]

* * *

- assay_overview: soluble on expression in E. coli; label from the status in PepcDB or PDB records

[
  {
    "polymer_sequence": "MGSDKIHHHHHHMKADLHVHTCLSPCADLLMIPPVVERASGDVQILGIVDHNSAKNVPAFLKMKKLVVPGIEIQTVEDVHVLGFFSDIESALKVTKIVYEHLPSVKHDHEKMGYQLFVDEKGNYTGYEDVPLGFPSDLTLSQAVELIRSFGGIPVYAHVEKRFGVLYQLGFFPDLEIPVAEVVSREGKENAQKKNLRVIVTSDAHFPSDIGRRYIDISGAPNSPEEVLKKILNSEYTLGGVLNW",
    "soluble on expression in E. coli": "not soluble"
  },
  {
    "polymer_sequence": "MRQSTLHTRLSTGPGGSMRSSIEIFNIRTRKMRVVWQTPELFEAPNWSPDGKYLLLNSEGLLYRLSLAGDPSPEKVDTGFATICNNDHGISPDGALYAISDKVEFGKSAIYLLPSTGGTPRLMTKNLPSYWHGWSPDGKSFTYCGIRDQVFDIYSMDIDSGVETRLTHGEGRNDGPDYSPDGRWIYFNSSRTGQMQIWRVRVDGSSVERITDSAYGDWFPHPSPSGDKVVFVSYDADVFDHPRDLDVRVQLMDMDGGNVETLFDLFGGQGTMNSPNWSPDGDEFAYVRYFPVE",
    "soluble on expression in E. coli": "soluble"
  },
  {
    "polymer_sequence": "MGSSHHHHHHSSGLVSRRHMNIDMAALHAIEVDRGISVNELLETIKSALLTAYRHTQGHQTDARIEIDRKTGVVRVIARETDEAGNLISEWDDTPEGFGRIAATTARQVMLQRFRDAENERTYGEFSTREGEIVAGVIQRDSRANARGLVVVRIGTETKASEGVIPAAEQVPGESYEHGNRLRCYVVGVTRGAREPLITLSRTHPNLVRKLFSLEVPEIADGSVEIVAVAREAGHRSKIAVRSNVAGLNAKGACIGPMGQRVRNVMSELSGEKIDIIDYDDDPARFVANALSPAKVVSVSVIDQTARAARVVVPDFQLSLAIGKEGQNARLAARLTGWRIDIRGDAPPPPPGQPEPGVSRGMAHDR",
    "soluble on expression in E. coli": "soluble"
  },
  {
    "polymer_sequence": "MYFPSGSDPFAVGEDLGVWAPADHQRIIAKLTTGLGVLFYHTKAIHLEPLPETMLDDAKASLVPDLSLVDNESSETPIIIEVCKTAGLKGDLRKVIQLIDDGIYGIREGFVYNYKTQQWLRYRFGDGGLTTESSFSEILNLDLNTFL",
    "soluble on expression in E. coli": "not soluble"
  },
  {
    "polymer_sequence": "MGSDKIHHHHHHMIPISLIQETAEGLMDKAAIEIPQDYLDGLQEAARTEDGDLSSFVLKAMLDNYEAAKEDRRAMCGDTGVPRWFVKMGNDASVEGGMVALEAALRRATANATNGVPLRPNRVHPLWRTDHNNNVGIGAPEIEYGFEPEGEWIDLITVHKGGLFGTDYRMLFPSDGLQGIKRFYLDSLMAFGKRGLACQPAIIGIGLGGSKDICMTLGKRASTLRVVGSRNSDPRIAEMEDEFKALGNSIGMGAMGFVGKNMVIDCNIEVGYCHTGGLPMSVHAFCLSSRRAVARIHADGRVEHRTDPDWFTDYQRRETIDWPLAQEAAE",
    "soluble on expression in E. coli": "not soluble"
  },
  {
    "polymer_sequence": "MEVFLLKLDSKNCPNKRLKTLEEVPENTAITVGNFDGVHLGHRYLIENLKKKAKSENLKTLVLTFCPHPLKVLAPQLLPCELTDINEKIEIFRELGVDYLCFIRFDKEFAKIRAREFLEKIIYEKLKCRYLLVGYDWRYGYRREGEIELAKEVGSELGFEVEEAKPFKIKGHIVSSTLIRRLLREGRVEEVREYLGHNYWVKRKVVKGDQRGSKIGFPTANLQNTENLCLKEGVYAVKVEDKYLGVANYGYRPTFGKKKRVLEVHILDFEGNLRGKRIKVEFLKFIREEKKFSSVEELIQQIKKDVEAVKGLSKLEHHHHHH",
    "soluble on expression in E. coli": "soluble"
  }
]
